Data provenance: patent US20240189318A1

# Measurement Target: OATP1B3 (Homo sapiens)
# Construct: expressed in transfected cells; host or cells: MDCK-II
# Sequence (Q9NPD5 whole entry): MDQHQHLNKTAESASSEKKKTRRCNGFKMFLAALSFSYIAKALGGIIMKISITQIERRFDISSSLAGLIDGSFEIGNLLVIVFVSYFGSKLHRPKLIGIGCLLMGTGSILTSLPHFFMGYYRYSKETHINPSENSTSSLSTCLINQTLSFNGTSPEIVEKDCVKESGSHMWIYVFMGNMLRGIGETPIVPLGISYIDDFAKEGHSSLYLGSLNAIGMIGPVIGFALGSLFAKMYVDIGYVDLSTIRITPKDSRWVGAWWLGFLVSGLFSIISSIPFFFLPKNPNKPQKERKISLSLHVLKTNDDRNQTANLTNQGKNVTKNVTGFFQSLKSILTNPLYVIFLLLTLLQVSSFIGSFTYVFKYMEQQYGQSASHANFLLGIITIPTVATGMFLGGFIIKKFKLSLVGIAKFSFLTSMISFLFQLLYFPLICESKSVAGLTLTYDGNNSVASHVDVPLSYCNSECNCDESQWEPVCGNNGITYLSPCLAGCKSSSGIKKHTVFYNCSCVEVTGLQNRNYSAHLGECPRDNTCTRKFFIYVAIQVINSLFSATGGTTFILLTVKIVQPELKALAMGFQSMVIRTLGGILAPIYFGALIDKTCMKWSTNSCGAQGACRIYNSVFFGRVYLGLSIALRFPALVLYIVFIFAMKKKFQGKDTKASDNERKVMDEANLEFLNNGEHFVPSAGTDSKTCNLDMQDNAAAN
# Experimental Protocol: Transporter inhibition in MDCK-II cells, OATP1B3
# Format: in vitro ADME
# Condition Description: OATP1B3; probe CCK-8 2 μM; corrected; read-out: IC50 corrected for non-specific binding
Metric: IC50 (µM)
Numeric only. Scale: µM

Ask | Provide the documented IC50 with OATP1B3 (Homo sapiens) as the system for COC[C@H](NC(=O)c1ccn(S(C)(=O)=O)c1)C(=O)Nc1nc(-c2cccc(N3C[C@@H](C)O[C@@H](C)C3)n2)cs1
Reply | 2.68

###

# Measurement Target: BCRP (Homo sapiens, UniProt Q9UNQ0)
# Construct: expressed in transfected cells; host or cells: MDCK-II
# Sequence (Q9UNQ0 whole entry): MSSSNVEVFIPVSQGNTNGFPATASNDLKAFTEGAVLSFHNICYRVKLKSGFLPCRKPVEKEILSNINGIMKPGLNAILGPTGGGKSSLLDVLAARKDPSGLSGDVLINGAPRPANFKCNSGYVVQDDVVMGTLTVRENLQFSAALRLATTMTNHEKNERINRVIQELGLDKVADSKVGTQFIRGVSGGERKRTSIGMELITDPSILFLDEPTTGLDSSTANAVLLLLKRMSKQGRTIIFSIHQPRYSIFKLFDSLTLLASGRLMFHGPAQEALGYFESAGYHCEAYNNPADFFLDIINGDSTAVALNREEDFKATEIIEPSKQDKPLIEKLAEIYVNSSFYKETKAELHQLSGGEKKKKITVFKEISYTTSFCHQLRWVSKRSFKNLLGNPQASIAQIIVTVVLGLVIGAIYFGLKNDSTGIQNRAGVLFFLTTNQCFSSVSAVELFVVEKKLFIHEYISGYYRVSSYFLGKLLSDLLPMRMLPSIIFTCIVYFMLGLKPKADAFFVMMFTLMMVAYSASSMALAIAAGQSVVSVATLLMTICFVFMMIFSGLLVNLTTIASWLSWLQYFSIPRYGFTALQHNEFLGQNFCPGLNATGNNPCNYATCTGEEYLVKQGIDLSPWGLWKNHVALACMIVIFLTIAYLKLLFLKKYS
# Experimental Protocol: Transporter inhibition in MDCK-II cells, BCRP
# Assay type: in vitro ADME
# Condition Description: BCRP in MDCK-II cells; probe prazosin 2 μM; read-out: Estimated IC50 using nominal concentrations
Metric: IC50 (µM)
# value in µM; strip the unit string

Ask | Write down the reported IC50 of COC[C@H](NC(=O)c1ccn(S(C)(=O)=O)c1)C(=O)Nc1nc(-c2cccc(N3C[C@@H](C)O[C@@H](C)C3)n2)cs1 [compound of formula (I)] , test system: BCRP (Homo sapiens, UniProt Q9UNQ0).
Reply | 10.1

###

# Measurement Target: P-gp (Homo sapiens)
# Construct: expressed in transfected cells; host or cells: MDCK-II
# Sequence (P08183 whole entry): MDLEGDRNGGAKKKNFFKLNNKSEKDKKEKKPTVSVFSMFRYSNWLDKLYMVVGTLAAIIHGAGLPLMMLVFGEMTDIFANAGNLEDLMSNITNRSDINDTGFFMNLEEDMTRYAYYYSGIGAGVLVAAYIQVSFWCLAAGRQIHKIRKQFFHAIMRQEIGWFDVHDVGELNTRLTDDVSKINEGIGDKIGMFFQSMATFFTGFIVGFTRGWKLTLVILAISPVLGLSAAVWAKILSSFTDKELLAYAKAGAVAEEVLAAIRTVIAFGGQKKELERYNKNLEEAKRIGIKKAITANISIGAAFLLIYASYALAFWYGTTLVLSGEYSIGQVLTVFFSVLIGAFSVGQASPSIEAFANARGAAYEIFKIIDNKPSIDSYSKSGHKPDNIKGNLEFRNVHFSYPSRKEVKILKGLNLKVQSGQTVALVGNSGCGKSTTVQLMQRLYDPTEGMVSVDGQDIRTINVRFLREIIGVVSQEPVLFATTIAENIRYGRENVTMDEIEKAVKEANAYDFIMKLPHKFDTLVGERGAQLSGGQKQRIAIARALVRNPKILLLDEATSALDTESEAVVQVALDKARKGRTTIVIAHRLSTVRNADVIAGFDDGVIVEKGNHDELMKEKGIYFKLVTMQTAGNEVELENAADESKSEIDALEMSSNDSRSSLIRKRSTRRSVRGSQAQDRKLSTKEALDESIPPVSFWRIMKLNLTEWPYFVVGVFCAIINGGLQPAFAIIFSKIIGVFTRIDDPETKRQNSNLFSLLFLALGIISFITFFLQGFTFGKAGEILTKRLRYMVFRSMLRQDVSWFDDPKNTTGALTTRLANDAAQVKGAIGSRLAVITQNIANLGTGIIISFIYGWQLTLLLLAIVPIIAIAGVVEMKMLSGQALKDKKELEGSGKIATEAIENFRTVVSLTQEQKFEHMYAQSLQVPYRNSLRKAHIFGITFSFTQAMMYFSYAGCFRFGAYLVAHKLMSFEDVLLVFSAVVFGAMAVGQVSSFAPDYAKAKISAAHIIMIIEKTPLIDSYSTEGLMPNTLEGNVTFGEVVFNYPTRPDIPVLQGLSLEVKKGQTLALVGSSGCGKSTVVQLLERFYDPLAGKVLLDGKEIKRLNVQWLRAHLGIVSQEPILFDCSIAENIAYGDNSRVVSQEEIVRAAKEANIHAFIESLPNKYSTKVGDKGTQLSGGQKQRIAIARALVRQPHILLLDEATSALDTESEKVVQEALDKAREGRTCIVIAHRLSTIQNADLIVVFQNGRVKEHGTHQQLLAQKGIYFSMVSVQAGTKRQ
# Experimental Protocol: Transporter inhibition in MDCK-II cells, P-gp
# Format: in vitro ADME
# Condition Description: P-gp; probe quinidine 0.1 μM; corrected; read-out: IC50 corrected for non-specific binding
Metric: IC50

Ask | Which measured IC50 value corresponds to COC[C@H](NC(=O)c1ccn(S(C)(=O)=O)c1)C(=O)Nc1nc(-c2cccc(N3C[C@@H](C)O[C@@H](C)C3)n2)cs1 ?
Reply | 4.36 µM

###

# Test system: CYP3A4/5
# Experimental Protocol: CYP enzyme inhibition in pooled human liver microsomes, CYP3A4/5
# Condition Description: human, pooled human liver microsomes, probe testosterone (6β-hydroxylation), Enzyme activity (% inhibition), 30 Minutes Pre-incubation with NADPH, CYP3A4/5; 10 μM; probe Testosterone; PHLM
Metric: inhibition at 10 µM (%)
Write the number in % without appending the unit.

Ask | Which inhibition at 10 µM is reported with CYP3A4/5 for this entry: COC[C@H](NC(=O)c1ccn(S(C)(=O)=O)c1)C(=O)Nc1nc(-c2cccc(N3C[C@@H](C)O[C@@H](C)C3)n2)cs1 [compound of formula (I)] ?
Reply | 27.4

###

# Measurement Target: CYP1A2 (Homo sapiens)
# Sequence (P05177 whole entry): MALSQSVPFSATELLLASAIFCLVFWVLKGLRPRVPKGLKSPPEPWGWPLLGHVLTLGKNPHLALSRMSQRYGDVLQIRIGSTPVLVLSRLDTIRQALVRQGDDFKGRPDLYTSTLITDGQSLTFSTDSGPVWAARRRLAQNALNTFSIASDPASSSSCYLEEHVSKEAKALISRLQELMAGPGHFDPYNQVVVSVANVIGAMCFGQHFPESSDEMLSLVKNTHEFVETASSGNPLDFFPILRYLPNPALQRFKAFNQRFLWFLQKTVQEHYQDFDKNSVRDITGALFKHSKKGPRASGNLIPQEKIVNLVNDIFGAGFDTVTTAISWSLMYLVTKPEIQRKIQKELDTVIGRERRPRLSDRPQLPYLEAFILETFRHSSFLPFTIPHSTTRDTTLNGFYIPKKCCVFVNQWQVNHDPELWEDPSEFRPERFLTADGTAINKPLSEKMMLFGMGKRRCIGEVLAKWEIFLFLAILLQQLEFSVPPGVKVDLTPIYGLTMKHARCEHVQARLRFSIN
# Experimental Protocol: CYP enzyme inhibition in pooled human liver microsomes, CYP1A2
# Condition Description: human, microsomes, Enzyme activity (% inhibition), 30 Minutes Pre-incubation without NADPH, CYP1A2; 30 μM; probe Phenacetin; PHLM
Metric: inhibition at 30 µM

Ask | Please tell me: inhibition at 30 µM of COC[C@H](NC(=O)c1ccn(S(C)(=O)=O)c1)C(=O)Nc1nc(-c2cccc(N3C[C@@H](C)O[C@@H](C)C3)n2)cs1 , system CYP1A2 (Homo sapiens)?
Reply | 8.5%

###

# Measurement Target: CYP2D6 (Homo sapiens, UniProt P10635)
# Sequence (P10635 whole entry): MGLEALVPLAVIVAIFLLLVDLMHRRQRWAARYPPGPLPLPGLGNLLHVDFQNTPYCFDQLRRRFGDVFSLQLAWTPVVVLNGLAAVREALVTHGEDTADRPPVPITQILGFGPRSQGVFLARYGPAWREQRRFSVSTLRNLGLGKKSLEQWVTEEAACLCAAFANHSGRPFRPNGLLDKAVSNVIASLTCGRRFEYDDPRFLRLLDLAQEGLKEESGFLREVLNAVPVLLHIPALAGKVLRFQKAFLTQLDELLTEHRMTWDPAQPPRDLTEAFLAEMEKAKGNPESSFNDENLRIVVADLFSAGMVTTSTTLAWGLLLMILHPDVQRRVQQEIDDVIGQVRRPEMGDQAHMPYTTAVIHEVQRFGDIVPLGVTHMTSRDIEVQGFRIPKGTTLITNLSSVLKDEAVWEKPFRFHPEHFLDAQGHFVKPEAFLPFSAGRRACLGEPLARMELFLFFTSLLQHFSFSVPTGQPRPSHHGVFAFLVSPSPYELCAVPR
# Experimental Protocol: CYP enzyme inhibition in pooled human liver microsomes, CYP2D6
# Condition Description: human, microsomes, Enzyme activity (% inhibition), 30 Minutes Pre-incubation with NADPH, CYP2D6; 30 μM; probe Dextromethorphan; PHLM
Metric: inhibition at 30 µM (%)
Record the value in %, omitting the unit from your answer.

Ask | Which inhibition at 30 µM value is on record for COC[C@H](NC(=O)c1ccn(S(C)(=O)=O)c1)C(=O)Nc1nc(-c2cccc(N3C[C@@H](C)O[C@@H](C)C3)n2)cs1 ?
Reply | 9.6
